Assayed Target: Voltage-dependent L-type calcium channel subunit alpha-1C (Rattus norvegicus, UniProt P22002)
Sequence (P22002 whole entry): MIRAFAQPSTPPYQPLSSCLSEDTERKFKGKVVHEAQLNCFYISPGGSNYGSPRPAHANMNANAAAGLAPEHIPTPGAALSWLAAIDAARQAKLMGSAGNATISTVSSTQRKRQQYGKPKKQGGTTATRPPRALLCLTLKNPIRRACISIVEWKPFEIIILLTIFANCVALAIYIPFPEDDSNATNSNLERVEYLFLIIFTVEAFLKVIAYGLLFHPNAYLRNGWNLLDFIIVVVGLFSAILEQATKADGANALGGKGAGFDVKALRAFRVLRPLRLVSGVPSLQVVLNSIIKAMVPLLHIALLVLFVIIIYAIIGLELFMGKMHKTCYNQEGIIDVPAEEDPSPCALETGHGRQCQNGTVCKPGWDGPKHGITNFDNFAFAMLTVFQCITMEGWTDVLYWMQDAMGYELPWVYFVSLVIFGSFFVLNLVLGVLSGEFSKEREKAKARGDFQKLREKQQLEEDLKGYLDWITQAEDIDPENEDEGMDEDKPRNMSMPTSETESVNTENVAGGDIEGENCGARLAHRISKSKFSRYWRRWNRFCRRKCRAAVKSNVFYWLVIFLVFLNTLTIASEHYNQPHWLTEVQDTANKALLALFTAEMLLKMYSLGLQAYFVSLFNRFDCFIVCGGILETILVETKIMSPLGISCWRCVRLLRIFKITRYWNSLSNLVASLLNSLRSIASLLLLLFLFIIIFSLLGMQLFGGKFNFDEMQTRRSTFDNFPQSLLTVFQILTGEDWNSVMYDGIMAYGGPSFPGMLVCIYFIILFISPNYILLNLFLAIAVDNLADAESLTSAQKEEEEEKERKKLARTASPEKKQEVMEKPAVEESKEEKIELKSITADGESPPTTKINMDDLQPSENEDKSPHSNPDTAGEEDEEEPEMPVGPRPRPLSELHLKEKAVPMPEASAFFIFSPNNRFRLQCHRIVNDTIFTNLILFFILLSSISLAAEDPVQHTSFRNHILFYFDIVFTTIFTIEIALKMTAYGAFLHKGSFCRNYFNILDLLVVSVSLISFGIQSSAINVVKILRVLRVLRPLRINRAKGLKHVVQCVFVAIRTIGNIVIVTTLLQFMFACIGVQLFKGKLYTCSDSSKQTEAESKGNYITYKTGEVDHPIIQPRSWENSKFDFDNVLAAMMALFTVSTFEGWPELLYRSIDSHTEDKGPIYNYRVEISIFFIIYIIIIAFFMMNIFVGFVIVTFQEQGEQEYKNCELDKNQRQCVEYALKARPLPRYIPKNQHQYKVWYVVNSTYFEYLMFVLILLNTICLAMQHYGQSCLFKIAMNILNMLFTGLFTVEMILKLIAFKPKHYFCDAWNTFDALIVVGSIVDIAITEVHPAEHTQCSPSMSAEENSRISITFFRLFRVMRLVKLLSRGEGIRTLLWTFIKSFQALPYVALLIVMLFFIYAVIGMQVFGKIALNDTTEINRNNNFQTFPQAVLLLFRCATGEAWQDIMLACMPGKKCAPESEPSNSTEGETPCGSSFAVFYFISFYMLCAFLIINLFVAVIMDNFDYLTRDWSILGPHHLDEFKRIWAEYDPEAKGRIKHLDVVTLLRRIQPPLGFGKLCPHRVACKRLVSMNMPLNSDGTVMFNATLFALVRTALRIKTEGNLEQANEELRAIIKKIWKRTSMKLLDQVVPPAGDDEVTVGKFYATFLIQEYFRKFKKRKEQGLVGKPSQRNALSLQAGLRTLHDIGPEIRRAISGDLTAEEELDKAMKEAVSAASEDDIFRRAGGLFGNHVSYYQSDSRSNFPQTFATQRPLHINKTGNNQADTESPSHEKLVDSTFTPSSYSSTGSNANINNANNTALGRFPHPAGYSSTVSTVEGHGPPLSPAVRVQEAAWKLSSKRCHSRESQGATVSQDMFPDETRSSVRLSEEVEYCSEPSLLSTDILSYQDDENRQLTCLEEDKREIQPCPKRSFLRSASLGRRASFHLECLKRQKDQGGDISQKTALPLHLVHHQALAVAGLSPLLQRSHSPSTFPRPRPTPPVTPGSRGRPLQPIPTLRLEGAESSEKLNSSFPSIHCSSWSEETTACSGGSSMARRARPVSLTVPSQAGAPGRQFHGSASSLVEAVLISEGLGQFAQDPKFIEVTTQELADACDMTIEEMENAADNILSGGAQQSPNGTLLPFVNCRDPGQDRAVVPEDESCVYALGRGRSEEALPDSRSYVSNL
Measurement Description: In vitro inhibition of K+ induced contractions of the isolated rat aorta.
Labelling field: enter met if recorded IC50 is less than 2000 nM. Enter not met if it equals or exceeds that cut-off.

1) CN(CCCN1C(=O)CSC1c1cc(C(C)(C)C)c(O)c(C(C)(C)C)c1)CC1CC1 (stereo not given)
met
2) CN(C)CCCN1C(=O)CSC1c1cc(C(C)(C)C)c(O)c(C(C)(C)C)c1 (stereo not given)
met
3) CN(C)CCN(C)CCCN1C(=O)CSC1c1cc(C(C)(C)C)c(O)c(C(C)(C)C)c1 (stereo not given)
met
4) COc1cc2c(cc1OC)CN(CCCN1C(=O)CSC1c1cc(C(C)(C)C)c(O)c(C(C)(C)C)c1)CC2 (stereo not given)
met
5) CNCCCN1C(=O)CSC1c1cc(C(C)(C)C)c(O)c(C(C)(C)C)c1 (stereo not given)
not met
